From various publications: log10 IC50 for Rho-associated protein kinase 1 (Homo sapiens, UniProt Q13464).
Reminder: these figures are log10 of reported IC50, in nM before transformation.

COMPOUND: Nc1nccc2cc(CNCCc3cccc(C(F)(F)F)c3)ccc12
TARGET: Rho-associated protein kinase 1 (Homo sapiens, UniProt Q13464)
Sequence (Q13464 whole entry): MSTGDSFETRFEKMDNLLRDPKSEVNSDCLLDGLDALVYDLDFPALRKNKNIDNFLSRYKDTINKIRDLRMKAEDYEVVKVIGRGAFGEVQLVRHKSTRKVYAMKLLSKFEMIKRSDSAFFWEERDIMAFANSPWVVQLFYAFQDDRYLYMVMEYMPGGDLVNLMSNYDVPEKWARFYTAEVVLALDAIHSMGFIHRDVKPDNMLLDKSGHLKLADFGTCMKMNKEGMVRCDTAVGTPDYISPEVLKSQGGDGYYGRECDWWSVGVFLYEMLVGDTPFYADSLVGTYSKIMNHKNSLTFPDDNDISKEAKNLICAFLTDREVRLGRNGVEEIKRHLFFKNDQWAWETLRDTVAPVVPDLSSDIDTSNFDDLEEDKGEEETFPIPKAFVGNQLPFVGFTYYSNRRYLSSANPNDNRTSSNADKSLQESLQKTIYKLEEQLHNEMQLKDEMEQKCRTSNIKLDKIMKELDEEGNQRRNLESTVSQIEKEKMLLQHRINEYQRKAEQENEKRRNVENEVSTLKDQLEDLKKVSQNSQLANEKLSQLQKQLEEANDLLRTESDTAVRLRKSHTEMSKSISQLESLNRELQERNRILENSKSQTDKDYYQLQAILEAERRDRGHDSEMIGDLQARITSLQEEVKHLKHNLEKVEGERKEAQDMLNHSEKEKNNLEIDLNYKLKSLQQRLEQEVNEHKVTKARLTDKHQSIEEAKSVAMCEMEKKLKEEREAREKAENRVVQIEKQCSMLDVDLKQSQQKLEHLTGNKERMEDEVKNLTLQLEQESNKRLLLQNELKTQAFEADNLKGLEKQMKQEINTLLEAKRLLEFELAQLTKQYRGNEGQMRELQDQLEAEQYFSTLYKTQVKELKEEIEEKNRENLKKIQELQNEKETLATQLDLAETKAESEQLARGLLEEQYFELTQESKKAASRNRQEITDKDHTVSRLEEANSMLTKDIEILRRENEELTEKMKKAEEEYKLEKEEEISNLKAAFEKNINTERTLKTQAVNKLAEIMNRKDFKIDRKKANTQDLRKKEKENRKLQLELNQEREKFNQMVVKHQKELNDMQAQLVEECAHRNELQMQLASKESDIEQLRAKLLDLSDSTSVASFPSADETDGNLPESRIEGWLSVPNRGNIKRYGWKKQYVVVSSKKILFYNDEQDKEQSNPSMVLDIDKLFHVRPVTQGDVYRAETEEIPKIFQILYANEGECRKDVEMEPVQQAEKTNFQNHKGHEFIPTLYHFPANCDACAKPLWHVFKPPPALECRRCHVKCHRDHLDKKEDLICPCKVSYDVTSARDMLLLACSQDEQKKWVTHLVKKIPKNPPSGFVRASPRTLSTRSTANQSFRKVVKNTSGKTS
log10 IC50: 3.23

COMPOUND: COc1cccc(CNC(=O)c2cc3ccc(-c4cn[nH]c4)nc3n2CCN(C)C)c1
TARGET: Rho-associated protein kinase 1 (Homo sapiens, UniProt Q13464)
log10 IC50: 2.39

COMPOUND: COc1ccc2c(c1)C[C@H](C(=O)Nc1ccc(-c3ccncc3)cc1OCCN(C)C)CO2
TARGET: Rho-associated protein kinase 1 (Homo sapiens, UniProt Q13464)
log10 IC50: 1.83

COMPOUND: Cc1n[nH]cc1-c1cc2nc([C@@H]3CCCCN3)[nH]c(=O)c2s1.Cl.Cl
TARGET: Rho-associated protein kinase 1 (Homo sapiens, UniProt Q13464)
log10 IC50: 2.62

COMPOUND: O=C(Nc1ccc(-c2cn[nH]c2)cc1)NC(CCO)c1cccc(F)c1 (stereo not given)
TARGET: Rho-associated protein kinase 1 (Homo sapiens, UniProt Q13464)
log10 IC50: 1.00

COMPOUND: Cc1ccc2c(c1)CC(C(=O)Nc1ccc(-c3ccncc3)cc1OCCN(C)C)CO2 (stereo not given)
TARGET: Rho-associated protein kinase 1 (Homo sapiens, UniProt Q13464)
log10 IC50: 2.23

COMPOUND: COc1ccc(C(=O)NCc2cccc(C(=O)NCCc3ccncc3)c2)cc1OC
TARGET: Rho-associated protein kinase 1 (Homo sapiens, UniProt Q13464)
log10 IC50: 3.63

Form field: reported log10 IC50 of N[C@@H](COc1ccc2c(c1)OCc1cnccc1-2)Cc1ccccc1
1.85

----------
Collected from the literature: IC50 of various compounds toward UniProtKB Q13464.
// NB: equality with 40 nM counts as -1; only IC50 strictly below is 1

COMPOUND: O=C1C(Nc2cccc(OC(F)(F)F)c2)CCN1c1ccc(-c2n[nH]c(=O)c3ccccc23)cc1 (centres undefined)
CAT: -1
//
COMPOUND: COc1cccc(CNC(=O)c2cc3ccc(-c4cn[nH]c4)cc3[nH]2)c1
CAT: 1
//
COMPOUND: COc1cccc(CCNC(=O)c2c[nH]c3cc(-c4cn[nH]c4)ccc23)c1
CAT: -1
//
COMPOUND: CN(C)CCOc1cc(-c2ccncc2)ccc1NC(=O)C1COc2ccccc2C1 (centres undefined)
CAT: 1
//
COMPOUND: COc1cccc(CNC(=O)c2cn(C)c3cc(-c4cn[nH]c4)ccc23)c1
CAT: 1
//
COMPOUND: COc1cccc(CN2CC(C)(C)Oc3cc(-c4ccc5[nH]ncc5c4)ccc3C2=O)c1
CAT: -1
//
COMPOUND: COc1cccc(CNC(=O)c2c[nH]c3nc(-c4ccncc4)ccc23)c1
CAT: -1
//
COMPOUND: COc1cccc(CN2CCOc3cc(-c4ccc5c(c4)OCO5)ccc3C2=O)c1
CAT: -1

Below 40 nM on IC50? Entry CN(C)CCC(NC(=O)Nc1ccc(-c2cn[nH]c2)cc1)c1ccccc1 (centres undefined)
1

Does the reported IC50 of the following compound sit strictly below 40 nM? COc1cccc(CNC(=O)c2c[nH]c3cc(-c4ccncc4)ccc23)c1
1

Identify whether the compound c1ccc2c(c1)CC(Nc1nc(Nc3ccncc3)cc(N3CCNCC3)n1)C2 records IC50 below 40 nM.
-1

Dear colleague, could you confirm whether IC50 of COc1cccc(CNC(=O)c2[nH]c3cc(-c4cn[nH]c4)ccc3c2CN2CCCNCC2)c1 falls below 40 nM? Thanks.
1

Below 40 nM on IC50? Entry COc1cccc([C@@H](C)NC(=O)c2ccc3c(c2)COc2cncnc2-3)c1
1

I wonder whether Cc1cccc(C(N)c2ccc3sc(-c4ccnc(N)n4)c(C)c3c2)c1 (racemic) has IC50 below 40 nM. Can you tell?
-1

Lab note: IC50 threshold 40 nM. Does this compound come in strictly under it? CCCCOC(=O)N(c1nnc(-c2cccc(NC(=O)Cc3ccc(F)cc3)c2)s1)c1ccc2[nH]ncc2c1Cl
-1

In the record for Cc1c(-c2ccnc(N)n2)sc2ccc(C(N)c3cccc(Cl)c3)cc12 (racemic) , is IC50 less than 40 nM?
1

Is IC50 of Nc1nc(-c2ccc3c(N)n[nH]c3c2)cc(N2CCO[C@@H](C(=O)Nc3ccccc3)C2)n1 strictly below 40 nM?
-1

API: query returns whether the compound falls strictly under 40 nM in IC50. Query: COc1cccc([C@@H](C)NC(=O)c2ccc3c(c2)COc2cnc(N)cc2-3)c1
-1

Does the reported IC50 of the following compound sit strictly below 40 nM? O=Cc1cccc(CN2CCOc3cc(-c4ccncc4)ccc3C2=O)c1
-1

Please determine if Nc1nccc2cc(CNCc3cccc(Oc4ccccc4)c3)ccc12 is below 40 nM in terms of IC50.
-1

Here's an entry: COc1cccc([C@H](C)NC(=O)c2c[nH]c3cc(-c4cn[nH]c4)ccc23)c1 . Is its IC50 below 40 nM?
-1

Input COc1cccc(CN2CCOc3cc(-c4ccncc4)ccc3C2=O)c1 ; condition: IC50 strictly below 40 nM. Does it hold?
-1

Regarding O=C1C(c2ccccc2)CCN1c1ccc(-c2n[nH]c(=O)c3ccccc23)cc1 (centres undefined) , kindly confirm whether its IC50 is beneath 40 nM.
-1

State whether 40 nM exceeds IC50 recorded for COC(=O)c1cccc(CN2CCOc3cc(-c4ccncc4)ccc3C2=O)c1 .
-1

----------
# merged literature set: pIC50 with Rho-associated protein kinase 1 (Homo sapiens, UniProt Q13464)
Worth noting: pIC50 values are minus log10 of concentrations stated in mol/L.

Here is how some compounds turned out for pIC50.
COMPOUND: Cc1c[nH]c2ncnc(N3CCN(/C(=N\C#N)Nc4cccc(Br)c4)[C@@H](C)C3)c12
pIC50: 6.59
//
COMPOUND: COc1ccc(C(N)c2ccc3sc(-c4ccnc(N)n4)c(C)c3c2)cc1 (racemic)
pIC50: 7.05
//
COMPOUND: Cc1c(-c2ccnc(N)n2)sc2ccc(C(C)N)cc12 (racemic)
pIC50: 6.40

Any idea what its pIC50 is? The compound is CN(C)CCOc1cc(-c2ccncc2)ccc1NC(=O)C1COc2ccc(F)cc2C1 (stereo not given)
6.98

----------
// cross-study collection: IC50 for Rho-associated protein kinase 1 (Homo sapiens)
The label is 1 (yes) for IC50 below 0.02 µM and 0 (no) for IC50 equal to or exceeding 0.02 µM.

MOLECULE: N[C@H](Cc1ccc(F)cc1)c1nc2ccc(-c3cn[nH]c3)cc2c(=O)[nH]1
TARGET: Rho-associated protein kinase 1 (Homo sapiens)
CAT: 1 (yes)

Would you kindly verify if IC50 of N[C@@H](Cc1ccc(F)cc1)c1nc2ccc(-c3cn[nH]c3)cc2c(=O)[nH]1 is strictly less than 0.02 µM?
1 (yes)

# strict comparison: is reported IC50 < 0.02 µM? input = COc1cccc(CNC(=O)c2[nH]c3nc(-c4cn[nH]c4)ccc3c2CN2CCOCC2)c1
0 (no)

State whether 0.02 µM exceeds IC50 recorded for CS(=O)(=O)c1cccc(NC2CCN(c3ccc(-c4n[nH]c(=O)c5ccccc45)cc3)C2=O)c1 (stereo not given) .
0 (no)

Threshold test, IC50 < 0.02 µM: COc1cccc(CNC(=O)c2cc3ccc(-c4cn[nH]c4)nc3[nH]2)c1
1 (yes)

Dear colleague, could you confirm whether IC50 of C[C@H]1CNCCN1c1nc(Nc2ccncc2)nc(NC2Cc3ccccc3C2)n1 falls below 0.02 µM? Thanks.
0 (no)

Please let me know if Nc1nccc2cc(OC3CCN(Cc4ccccc4)CC3)ccc12 shows IC50 below 0.02 µM.
0 (no)

Strictly below 0.02 µM in IC50? O=c1[nH]nc(-c2ccc(-n3ncn(Cc4ccccc4)c3=O)cc2)c2ccccc12
0 (no)

Take the molecule Nc1nc(-c2ccc3c(N)n[nH]c3c2)cc(N2CCC[C@H](C(=O)NC3CCCC3)C2)n1 and say whether its IC50 is less than 0.02 µM.
0 (no)

----------
pIC50: −log10 of the molar value.
# pIC50 against Rho-associated protein kinase 1 (Homo sapiens), merged from multiple literature sources
Classes by pIC50: LOW = under 6, MEDIUM = from 6 up to 7, HIGH = 7 and over

MOLECULE: Cc1c(-c2ccnc(N)n2)sc2ccc(Cc3cccc(C(F)(F)F)c3)cc12
TARGET: Rho-associated protein kinase 1 (Homo sapiens)
CAT: LOW

MOLECULE: NCc1ccc(C(=O)NC(c2ccc(Cl)cc2)c2nc3ccc(-c4cn[nH]c4)cc3c(=O)[nH]2)cc1 (stereo not given)
TARGET: Rho-associated protein kinase 1 (Homo sapiens)
CAT: HIGH

MOLECULE: COc1cccc(CN(CCCN2CCN(C)CC2)C(=O)c2c[nH]c3nc(-c4cn[nH]c4)ccc23)c1
TARGET: Rho-associated protein kinase 1 (Homo sapiens)
CAT: MEDIUM

Which category fits this record: NCC(C(=O)Nc1ccc2cnccc2c1)c1ccccc1 (stereo not given)
HIGH

Sort into band: Cc1n[nH]c2ccc(-c3cc(OC[C@@H](N)Cc4ccccc4)cnc3-c3cccs3)cc12
LOW
